Tested on: Heme
Test: Binding affinity to heme by UV-visible titration
Assign Ka to each entry below.
Answers are plain numbers, in ×10⁶ /M.

C[n+]1c2ccccc2c(Nc2ccccc2)c2[nH]c3ccccc3c21.[Cl-] : 0.155
C[n+]1c2ccccc2c(NCCCN)c2[nH]c3ccccc3c21.[Cl-] : 0.18
CC(CN(C)C)Nc1c2ccccc2[n+](C)c2c1[nH]c1ccccc12.[Cl-] (centres undefined) : 0.148
C[n+]1c2ccccc2c(Nc2ccc(N3CCCCC3)cc2)c2[nH]c3ccccc3c21.[Cl-] : 0.21

For each of the items listed, what is its Ka?
1. CCN(CC)CCCNc1c2ccc(Cl)cc2[n+](C)c2c1[nH]c1ccccc12.[Cl-]
2. C[n+]1c2ccccc2cc2[n-]c3ccccc3c21.Cl [CRYPTOLEPINE HYDROCHLORIDE]
3. CCN(CC)CCCNc1c2ccccc2[n+](C)c2c1[nH]c1ccccc12.[Cl-]

a:
1: 0.11; 2: 0.045; 3: 0.127

For each of the items listed, what is its Ka?
1. CN(C)CCCNc1c2ccccc2[n+](C)c2c1[nH]c1ccccc12.[Cl-]
2. CN(C)CC(C)(C)CNc1c2ccccc2[n+](C)c2c1[nH]c1ccccc12.[Cl-]

a:
[0.066, 0.069]
